Just for reference, patent US7427625B2 is where these values come from.

inhibition at 2 µM reference
biological target: EGFR (Homo sapiens); construct: The intracellular portion of EGFR started at nucleotide 2189 (corresponding to amino acid 667) and ended at the termination codon; made in house; host or cells: Sf9 insect cells (baculovirus); experiment: EGFR Kinase Assay; type: biochemical; settings: test concentration of 2 μM; read-out: EGFR percent inhibition
Sequence (P00533 669-1210 limits assumed): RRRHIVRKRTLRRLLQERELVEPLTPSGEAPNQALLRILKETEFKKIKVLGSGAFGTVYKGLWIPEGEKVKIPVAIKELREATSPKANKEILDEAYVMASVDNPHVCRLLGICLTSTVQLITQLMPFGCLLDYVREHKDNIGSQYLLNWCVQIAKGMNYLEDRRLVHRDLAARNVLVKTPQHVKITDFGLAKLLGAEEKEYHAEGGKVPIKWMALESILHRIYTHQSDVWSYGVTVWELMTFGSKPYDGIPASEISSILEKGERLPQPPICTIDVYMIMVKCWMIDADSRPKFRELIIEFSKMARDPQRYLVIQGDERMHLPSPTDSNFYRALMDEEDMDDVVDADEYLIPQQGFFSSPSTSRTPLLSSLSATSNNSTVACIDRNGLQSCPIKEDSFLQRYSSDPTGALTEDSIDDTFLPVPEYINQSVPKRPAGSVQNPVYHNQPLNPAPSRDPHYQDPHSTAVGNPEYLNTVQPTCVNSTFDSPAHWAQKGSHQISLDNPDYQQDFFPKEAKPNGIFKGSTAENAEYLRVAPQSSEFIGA
Report as a plain number; the unit % is understood.

Here is how some compounds turned out for inhibition at 2 µM.
compound="CC(C)(CO)NC(=O)c1sc2ncc(C#N)c3c2c1NC(=O)N3c1c(Cl)ccc2c1OCO2 [Cpd 38]" testtarget="EGFR (Homo sapiens)" metricname="inhibition at 2 µM" quantitativereadout=13
compound="COC1CCN(Cc2ccc(NC(=O)c3sc4ncc(C#N)c5c4c3NC(=O)N5c3c(Cl)ccc4c3OCO4)cc2)CC1 [Cpd 18]" testtarget="EGFR (Homo sapiens)" metricname="inhibition at 2 µM" quantitativereadout=38
compound="CN1CCCCC1COc1ccc(NC(=O)c2sc3ncc(C#N)c4c3c2NC(=O)N4c2c(Cl)ccc3c2OCO3)cc1 (stereo not shown) [Cpd 32]" testtarget="EGFR (Homo sapiens)" metricname="inhibition at 2 µM" quantitativereadout=35

Consider now this further compound.
Task: Provide one value: measured inhibition at 2 µM of CCOC(=O)c1sc2nc(Cl)c(C#N)c3c2c1NC(=O)N3c1ccc(Oc2ccccc2)cc1 [Cpd 53]
Result: 2
